// data source = patent US20260327204A1

biological target: CDK13 (Homo sapiens); assay: Western blot degradation of CDK13 (Example 3); assay type: cell-based; parameters: degradation of CDK12/13 protein in leukemia cells KASUMI-1, MV4-11, and Jurkat; endogenous in cells; settings: DC50 classes; cell line not given; read-out: CDK13 degradation Activity
Sequence (Q14004 whole entry): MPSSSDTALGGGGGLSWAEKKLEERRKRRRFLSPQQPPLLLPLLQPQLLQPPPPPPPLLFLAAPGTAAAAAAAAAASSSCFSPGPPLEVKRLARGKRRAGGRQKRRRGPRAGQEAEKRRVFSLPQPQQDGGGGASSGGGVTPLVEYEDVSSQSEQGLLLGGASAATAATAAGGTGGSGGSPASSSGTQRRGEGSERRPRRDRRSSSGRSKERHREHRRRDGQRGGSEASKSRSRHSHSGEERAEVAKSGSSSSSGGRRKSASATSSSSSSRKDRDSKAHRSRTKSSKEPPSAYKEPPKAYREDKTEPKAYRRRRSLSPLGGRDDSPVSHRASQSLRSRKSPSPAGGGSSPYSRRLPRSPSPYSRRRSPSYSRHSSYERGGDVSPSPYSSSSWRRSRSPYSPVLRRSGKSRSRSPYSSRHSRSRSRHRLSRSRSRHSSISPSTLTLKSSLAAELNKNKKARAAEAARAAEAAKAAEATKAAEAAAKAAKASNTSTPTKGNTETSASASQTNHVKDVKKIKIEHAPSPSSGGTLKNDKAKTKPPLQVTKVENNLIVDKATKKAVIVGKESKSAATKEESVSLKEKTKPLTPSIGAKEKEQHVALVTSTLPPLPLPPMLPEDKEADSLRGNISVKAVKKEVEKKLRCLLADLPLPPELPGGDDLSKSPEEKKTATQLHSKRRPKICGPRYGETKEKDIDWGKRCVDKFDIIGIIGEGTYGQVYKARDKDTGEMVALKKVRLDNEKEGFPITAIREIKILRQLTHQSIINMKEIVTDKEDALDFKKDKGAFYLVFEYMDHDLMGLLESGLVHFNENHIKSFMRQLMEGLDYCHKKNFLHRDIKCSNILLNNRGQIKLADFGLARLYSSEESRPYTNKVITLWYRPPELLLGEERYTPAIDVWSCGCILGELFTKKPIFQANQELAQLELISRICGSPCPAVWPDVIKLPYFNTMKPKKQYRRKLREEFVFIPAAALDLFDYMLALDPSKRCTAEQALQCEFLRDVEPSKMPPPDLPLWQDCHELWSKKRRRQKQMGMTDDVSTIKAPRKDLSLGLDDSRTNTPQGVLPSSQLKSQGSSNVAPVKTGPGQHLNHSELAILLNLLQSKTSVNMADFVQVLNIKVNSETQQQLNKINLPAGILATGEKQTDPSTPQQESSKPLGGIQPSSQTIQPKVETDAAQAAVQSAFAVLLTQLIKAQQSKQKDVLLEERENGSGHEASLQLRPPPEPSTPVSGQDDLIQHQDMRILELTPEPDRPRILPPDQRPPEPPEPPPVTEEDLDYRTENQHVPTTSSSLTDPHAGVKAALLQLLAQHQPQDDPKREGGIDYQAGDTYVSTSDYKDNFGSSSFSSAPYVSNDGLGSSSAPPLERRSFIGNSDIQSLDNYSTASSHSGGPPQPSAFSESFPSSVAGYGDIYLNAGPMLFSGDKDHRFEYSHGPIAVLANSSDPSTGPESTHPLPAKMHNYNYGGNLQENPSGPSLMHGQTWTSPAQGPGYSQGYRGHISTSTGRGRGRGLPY
Sequence (O75909 whole entry partner): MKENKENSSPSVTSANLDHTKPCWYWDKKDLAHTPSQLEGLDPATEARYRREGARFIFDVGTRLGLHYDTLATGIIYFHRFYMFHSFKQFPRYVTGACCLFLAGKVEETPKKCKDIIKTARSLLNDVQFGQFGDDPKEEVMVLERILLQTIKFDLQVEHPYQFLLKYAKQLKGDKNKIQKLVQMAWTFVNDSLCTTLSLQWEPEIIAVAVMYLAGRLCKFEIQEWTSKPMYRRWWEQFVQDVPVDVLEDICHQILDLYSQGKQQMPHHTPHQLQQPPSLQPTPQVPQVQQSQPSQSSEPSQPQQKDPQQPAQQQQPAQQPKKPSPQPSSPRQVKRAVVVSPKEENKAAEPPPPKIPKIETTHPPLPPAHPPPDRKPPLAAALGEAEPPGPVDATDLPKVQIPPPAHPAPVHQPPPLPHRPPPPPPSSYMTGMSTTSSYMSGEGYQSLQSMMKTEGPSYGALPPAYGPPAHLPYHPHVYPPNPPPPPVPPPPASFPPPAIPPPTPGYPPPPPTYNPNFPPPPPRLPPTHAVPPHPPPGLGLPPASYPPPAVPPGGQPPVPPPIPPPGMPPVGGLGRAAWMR
Reported DC50 is given for each of the following molecules.
ASSAY_READOUT: DC50

INSERT INTO results (molecule, assay_readout, measurement) VALUES
  ('CC(=O)N(c1ccc(N2CCN(CC3CN(c4ccc5c(c4)C(=O)N(C4CCC(=O)NC4=O)C5=O)C3)CC2)cc1)[C@H]1CC[C@H](Nc2ncc3ccccc3n2)CC1 (some centres unmarked) [Formula 127]', 'DC50', '0.5 to 1 µM'),
  ('CC(=O)N(c1ccc(-c2ccc(OC3CCN(CC(=O)N[C@H](C(=O)N4C[C@H](O)C[C@H]4C(=O)N[C@@H](C)c4ccc(-c5scnc5C)cc4)C(C)(C)C)CC3)nc2)cc1)[C@H]1CC[C@H](Nc2ncc3ccccc3n2)CC1 [Formula 135]', 'DC50', '1 to 3 µM'),
  ('CC(=O)N(c1ccc(N2CCN(C3CN(c4ccc5c(c4)C(=O)N(C4CCC(=O)NC4=O)C5=O)C3)CC2)cc1)[C@H]1CC[C@H](Nc2ncc3ccccc3n2)CC1 (some centres unmarked) [Formula 124]', 'DC50', '1 to 3 µM'),
  ('CC(=O)N(c1ccc(-c2ccc(N3CCN(c4cc(C(C(=O)N5C[C@H](O)C[C@H]5C(=O)N[C@@H](C)c5ccc(-c6scnc6C)cc5)C(C)C)on4)CC3)nc2)cc1)[C@H]1CC[C@@H](Nc2ncc3ccccc3n2)CC1 (single isomer, unassigned) [Formula 155]', 'DC50', '< 0.1 µM'),
  ('CC(=O)N(c1ccc(N2CCN(C3CCN(c4ccc5c(c4)C(=O)N(C4CCC(=O)NC4=O)C5=O)CC3)CC2)cc1)[C@H]1CC[C@H](Nc2ncc3ccccc3n2)CC1 (some centres unmarked) [Formula 123]', 'DC50', '0.5 to 1 µM');
